# subject_of_test: M2 muscarinic receptor (Homo sapiens, UniProt P08172)
# Construct: expressed in transfected cells; host or cells: CHO (M2-CHO)
# Sequence (P08172 whole entry): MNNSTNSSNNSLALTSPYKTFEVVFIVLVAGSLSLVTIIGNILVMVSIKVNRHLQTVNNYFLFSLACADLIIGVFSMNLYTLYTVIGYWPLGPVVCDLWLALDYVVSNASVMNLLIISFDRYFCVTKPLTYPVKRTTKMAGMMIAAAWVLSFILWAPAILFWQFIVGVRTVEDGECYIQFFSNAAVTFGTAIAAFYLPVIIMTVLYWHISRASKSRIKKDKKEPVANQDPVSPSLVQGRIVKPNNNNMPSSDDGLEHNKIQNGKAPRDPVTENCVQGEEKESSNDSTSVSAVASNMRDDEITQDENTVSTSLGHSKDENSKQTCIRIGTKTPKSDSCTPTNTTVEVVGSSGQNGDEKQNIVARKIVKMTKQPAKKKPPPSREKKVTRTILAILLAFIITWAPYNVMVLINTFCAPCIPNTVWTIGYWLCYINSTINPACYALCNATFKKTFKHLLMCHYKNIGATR
# assay_explanation: Functional mobilization of intracellular calcium (FLIPR), M2-CHO cells
# Format: cell-based
# details: 100% efficacy = maximum response obtained with the Carbachol control
readout: Emax

Worked cases, Emax given:
>  <compound>
COc1ccc(C#Cc2ccccc2)cc1C1CCN(C2CC3CC[C@H]2C3)CC1 (stereo in doubt)

>  <recorded_measurement>
25 to 100%

$$$$
>  <compound>
COc1cc(F)ccc1C1CCN([C@@H]2C[C@H]3CC[C@H]2C3)CC1

>  <recorded_measurement>
< 25%

$$$$
>  <compound>
c1ccc(C2CCN([C@H]3C[C@H]4CC[C@H]3C4)CC2)c(OCC2CCCCO2)c1 (stereo partly shown)

>  <recorded_measurement>
25 to 100%

$$$$

Then there is this compound:
Asked: So what's the measured Emax for this one? Cc1ccc(Cl)cc1C1CCN(CC2C[C@H]3CC[C@H]2C3)CC1 (stereo partly shown)
Given back: 25 to 100%
